Reference source: the supplement of paper PMC9233669

System: biotinyl-Trp-oxazolone
TEST METHOD NOTES: self-aminoacylation, catalytic enhancement (BWO) (fold over background); higher = more active; k-Seq, kA / k0A0; sequences stand for … in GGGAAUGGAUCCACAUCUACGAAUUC…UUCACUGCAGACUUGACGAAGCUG
Fewer inactive variants are shown than the library holds.
VALUE KIND: self-aminoacylation
Format: numeric value only, no unit, no commentary.

The cases that follow already have their self-aminoacylation on record.
AUUACCCUGGUCAGCGAGUGG [Fam2.1 aminoacylation ribozyme variant]; 2.61
AUUCCCAUGGUCAUCGAGUGA [Fam2.1 aminoacylation ribozyme variant]; 12.9
CCCCACCUCAAGCAAUCGGUC [Fam1B.1 aminoacylation ribozyme variant]; 4.87
AUUACCCUGGCCAGCGAGUGA [Fam2.1 aminoacylation ribozyme variant]; 4.9

Okay, next one:
Entry AUCACCCUGGUCAUCGAGUGC [Fam2.1 aminoacylation ribozyme variant] ; self-aminoacylation = 2.4

---

System: biotinyl-Trp-oxazolone
TEST METHOD NOTES: self-aminoacylation, catalytic enhancement (BWO) (fold over background); higher = more active; k-Seq, kA / k0A0; sequences stand for … in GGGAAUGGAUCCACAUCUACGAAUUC…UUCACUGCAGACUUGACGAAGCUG
This sample holds only a part of the variants without activity.
Here the recorded self-aminoacylation is given for each entry.
Just the number, please, no unit after it.

GAGUUUGCUACUAGUCGCAAG [Fam3.1 aminoacylation ribozyme variant]; 1.99
CUAGUUCAAACAAUCGGUCUG [Fam1A.1 aminoacylation ribozyme variant]; 6.47
CCACACUUCAAGCCAUUGGUC [Fam1B.1 aminoacylation ribozyme variant]; 0.734
AAGUUUGCUAAUAGGCGCUAG [Fam3.1 aminoacylation ribozyme variant]; 0.561
AUUACCCUUGUCAUUGAGUGA [Fam2.1 aminoacylation ribozyme variant]; 10.6
GUUCACCUAGGUGAUCGGGUG [Fam2.2 aminoacylation ribozyme variant]; 4.84
CUACUUCCAACACUCGGUCUG [Fam1A.1 aminoacylation ribozyme variant]; 0.796
AUUCCCCUAGGUCAUAGGGUG [Fam2.2 aminoacylation ribozyme variant]; 4.78
GUUCACCAAGGUCAUCGGGUG [Fam2.2 aminoacylation ribozyme variant]; 6
AGGUUUGCUAAUAGUCGAAAG [Fam3.1 aminoacylation ribozyme variant]; 3.4

Input CCACAGUUCAAGCAAUCGUUC [Fam1B.1 aminoacylation ribozyme variant] . Output self-aminoacylation: 0.472

Consider AUUCACUGAGGUCAUCGGGUG [Fam2.2 aminoacylation ribozyme variant] . Its measured self-aminoacylation is 5.64

Notebook: AUUCACCUCGGUCAUCGGUUG [Fam2.2 aminoacylation ribozyme variant] , self-aminoacylation read as 0.911

Record CUACUUCAAACCAUCGGUUUG [Fam1A.1 aminoacylation ribozyme variant] . Reported self-aminoacylation: 0.624

Per the records, this sequence ( CCACACUUCAAGCAUUCGGUG [Fam1B.1 aminoacylation ribozyme variant] ) has self-aminoacylation equal to 7.88

Note to self: self-aminoacylation recorded for CUACUUCAAACAAUCUGCCUG [Fam1A.1 aminoacylation ribozyme variant] was 0.605

For record AAGUUUGAUAAUGGUCGCAAG [Fam3.1 aminoacylation ribozyme variant] the listed self-aminoacylation is 0.581

self-aminoacylation for ACUACCCUGGUCAUGGAGUGA [Fam2.1 aminoacylation ribozyme variant] is 3.33

---

Tested on: biotinyl-Phe-oxazolone
TEST METHOD NOTES: self-aminoacylation, catalytic enhancement (BFO) (fold over background); higher = more active; k-Seq, kA / k0A0; sequences stand for … in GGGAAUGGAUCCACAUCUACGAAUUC…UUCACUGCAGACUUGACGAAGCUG
This sample holds only a part of the variants without activity.
Label scheme for self-aminoacylation: lower than 40 is F, 40 and above is T.

See these solved cases before continuing.
AUUCACCUAUUUCAUCGGGUG [Fam2.2 aminoacylation ribozyme variant]; F
AUUAUCCUGUUCAUCGAGUGA [Fam2.1 aminoacylation ribozyme variant]; F
AUCACCCUGGCCAUCGAGUGA [Fam2.1 aminoacylation ribozyme variant]; F
AUUAACCAAGGUCAUCGGGUG [Fam2.2 aminoacylation ribozyme variant]; T
CCAGACUUCAAGCAAUCGGUA [Fam1B.1 aminoacylation ribozyme variant]; F
AUUACCCUGGUCCGCGAGUGA [Fam2.1 aminoacylation ribozyme variant]; T
AUUCACCAAAGUCAUCGGGUG [Fam2.2 aminoacylation ribozyme variant]; T

Pending sequence:
API: above_or_equal(metric=self-aminoacylation, cutoff=40) for item AUUAGCCUGGACAUCGAGUGA [Fam2.1 aminoacylation ribozyme variant]
T

---

System: biotinyl-Trp-oxazolone
TEST METHOD NOTES: self-aminoacylation, catalytic enhancement (BWO) (fold over background); higher = more active; k-Seq, kA / k0A0; sequences stand for … in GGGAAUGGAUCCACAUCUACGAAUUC…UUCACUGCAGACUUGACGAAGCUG
Fewer inactive variants are shown than the library holds.
Binning rule for recorded self-aminoacylation: low (below 2), moderate (2 to below 6), high (6 or more)

CUACUUCAAACAAUCGGUCUU [Fam1A.1 aminoacylation ribozyme variant]; high

Now consider the entry below.
Exam item: assign CCACACUUCAAUCAAUAGGUC [Fam1B.1 aminoacylation ribozyme variant] to the correct category.
low

---

Tested on: biotinyl-Val-oxazolone
TEST METHOD NOTES: self-aminoacylation, catalytic enhancement (BVO) (fold over background); higher = more active; k-Seq, kA / k0A0; sequences stand for … in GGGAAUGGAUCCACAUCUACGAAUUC…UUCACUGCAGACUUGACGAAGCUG
Fewer inactive variants are shown than the library holds.
VALUE KIND: self-aminoacylation
Lab note: record just the number, no unit beside it.

Some sequences with known self-aminoacylation results, for comparison:
CUACUUCACACAGUCGGUCUG [Fam1A.1 aminoacylation ribozyme variant]; 0.731
CCACACUUCGAGCAAUCGGCC [Fam1B.1 aminoacylation ribozyme variant]; 2.77
AUUUCUCUGGUCAUCGAGUGA [Fam2.1 aminoacylation ribozyme variant]; 3.2
ACUACCCUUGUCAUCGAGUGA [Fam2.1 aminoacylation ribozyme variant]; 3.24
GUACUUCAAACAAUUGGUCUG [Fam1A.1 aminoacylation ribozyme variant]; 1.16
AUUACCGUGGUCACCGAGUGA [Fam2.1 aminoacylation ribozyme variant]; 2.83
AAGUAUGCUAAUAGUCGGAAG [Fam3.1 aminoacylation ribozyme variant]; 1.29
CUACCUCAAACAAUUGGUCUG [Fam1A.1 aminoacylation ribozyme variant]; 1.04
AUGACCCGGGUCAUCGAGUGA [Fam2.1 aminoacylation ribozyme variant]; 3.55
UUUACCCUGGUCAUCGAGUAA [Fam2.1 aminoacylation ribozyme variant]; 5.3

Lab note: measured self-aminoacylation of GUUCACCUAUGUCAUCGGGUG [Fam2.2 aminoacylation ribozyme variant] was 3.31

The sequence identified as AAGUUUGCUAAUAUUGGCAAG [Fam3.1 aminoacylation ribozyme variant] registered its self-aminoacylation at 0.784

Record CCACACUUCGAGCGAUCGGUC [Fam1B.1 aminoacylation ribozyme variant] . Reported self-aminoacylation: 1.69

The sequence listed as AUUCACCUAGGUCGUCGGAUG [Fam2.2 aminoacylation ribozyme variant] has a reported self-aminoacylation of 1.12

Data point: AAAUUUGCUAAUAGUCGCAAA [Fam3.1 aminoacylation ribozyme variant] ; self-aminoacylation = 2.41

// self-aminoacylation value for AUUCAGAUAGGUCAUCGGGUG [Fam2.2 aminoacylation ribozyme variant] : 3.77

The measured self-aminoacylation associated with AUUUUCCUAGGUCAUCGGGUG [Fam2.2 aminoacylation ribozyme variant] reads 4.16

So for AAGUUCGCUACUAGUCGCAAG [Fam3.1 aminoacylation ribozyme variant] , the logged self-aminoacylation turned out to be 1.79

Just so you know, measured self-aminoacylation for AUUAGCCUGGUCAUGGAGUGA [Fam2.1 aminoacylation ribozyme variant] came out at 2.72

Query CCACACUUCAAGCAAUCAUUC [Fam1B.1 aminoacylation ribozyme variant] yields self-aminoacylation of 0.671

For record CCACACGUCAAGCAAUCGUUC [Fam1B.1 aminoacylation ribozyme variant] the listed self-aminoacylation is 1.03

Form: sequence = AUUCACCUGGGUCAUCGGGCG [Fam2.2 aminoacylation ribozyme variant] ; self-aminoacylation = 4.75

So, AUUCCCCUAGGGCAUCGGGUG [Fam2.2 aminoacylation ribozyme variant] ? Its self-aminoacylation was 6.4

Noted for CCACACUUCCAGAAAUCGGUC [Fam1B.1 aminoacylation ribozyme variant] : its self-aminoacylation reads 1.06

// AUUCCCCUGGUCAUCGAGUUA [Fam2.1 aminoacylation ribozyme variant] : self-aminoacylation value = 1.36

Lookup result for AUUACGCUGGUCAUCGAUUGA [Fam2.1 aminoacylation ribozyme variant] ; measured self-aminoacylation: 1.18

// AUUACCCUAGUCAUCGAGUGC [Fam2.1 aminoacylation ribozyme variant] : self-aminoacylation value = 1.04

The reported value for AAGUUGACUAAUAGUCGCAAG [Fam3.1 aminoacylation ribozyme variant] in terms of self-aminoacylation is 0.949

Form field self-aminoacylation, entry AUUACACUGGUCAUGGAGUGA [Fam2.1 aminoacylation ribozyme variant] : 2

Sample AAUACCCUGGUCAUUGAGUGA [Fam2.1 aminoacylation ribozyme variant] ; self-aminoacylation observed: 2.9

Entry AAUACCCUGGUCAUCGAGCGA [Fam2.1 aminoacylation ribozyme variant] ; self-aminoacylation = 1.66
